biological target: LZK (Homo sapiens, UniProt O43283); construct: 10 nM LZK, catalytic domain, Carna Biosiences in assay buffer; purchased Carna Biosciences ('Carna Biosiences' [sic]); experiment: LZK biochemical assay (TR-FRET, MKK7 phosphorylation)
Sequence (O43283 168-409 limits assumed): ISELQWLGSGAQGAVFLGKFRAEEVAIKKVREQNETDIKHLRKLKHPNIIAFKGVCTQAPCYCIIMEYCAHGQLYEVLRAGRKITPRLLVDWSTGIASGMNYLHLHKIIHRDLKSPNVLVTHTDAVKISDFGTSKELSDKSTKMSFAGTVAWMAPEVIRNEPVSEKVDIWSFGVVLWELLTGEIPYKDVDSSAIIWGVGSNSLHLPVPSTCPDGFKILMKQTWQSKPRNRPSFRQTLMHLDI
The following compounds are listed with their measured IC50 values.
measured-endpoint: IC50

INSERT INTO measurements (compound, result) VALUES
  ('CCc1nnc(-c2cc(-c3cnn(Cc4ccccc4)c3)cn3nc(N)nc23)s1', '690 nM'),
  ('Nc1nc2cc(-c3cnn(C(c4ccc(C(F)(F)F)nc4)C4CCOCC4)c3)cc(-c3ccc(=O)n(CC(F)(F)F)c3)n2n1 (single isomer, unassigned) [II-192]', '2.2 nM'),
  ('CCC(c1ccc(C(F)(F)F)nc1)n1cc(-c2cc(-c3ccnc(C4(F)CC4)c3)n3nc(N)nc3c2)cn1 (single isomer, unassigned) [II-33]', '7.6 nM'),
  ('CCC(c1ccc(C(F)F)nc1)n1cc(-c2cc(-c3ccc(C4CC4)nc3)n3nc(N)nc3c2)cn1 (racemic) [II-67]', '15 nM'),
  ('CC[C@@H](c1ccc(F)cc1)n1cc(-c2cc(-c3cnn(CC(F)(F)F)c3)c3nc(N)nn3c2)cn1', '56 nM'),
  ('CC[C@@H](c1ccc(F)cc1)n1cc(-c2cc(-c3cnn(CC(F)(F)F)c3)n3nc(N)nc3c2)cn1', '160 nM'),
  ('CC(C)C(c1ccc(C(F)(F)F)nc1)n1cc(-c2cc(-c3ccc(C(F)F)nc3)n3nc(N)nc3c2)cn1 (racemic) [II-70]', '15 nM'),
  ('Nc1nc2c(-c3cccc(S(=O)(=O)C(F)(F)F)c3)cc(-c3cnn(C(c4ccc(C(F)(F)F)nc4)C4CCOCC4)c3)cn2n1 (single isomer, unassigned) [II-21]', '14 nM'),
  ('CCC(c1ccc(N2CCOCC2)cc1)n1cc(-c2cc(-c3cnn(CC(F)(F)F)c3)c3nc(N)nn3c2)cn1 (single isomer, unassigned) [II-104]', '51 nM'),
  ('CC(C)(O)c1cccc(-c2cc(-c3cnn(C(c4ccc(C(F)(F)F)nc4)C4CCOCC4)c3)cn3nc(N)nc23)c1 (racemic) [II-10]', '0.9 nM'),
  ('Nc1nc2cc(-c3cnn(C(c4ccc(C(F)(F)F)nc4)C4CCOCC4)c3)cc(-c3ccc(=O)n(C(F)F)c3)n2n1 (single isomer, unassigned) [II-184]', '2.4 nM'),
  ('Nc1nc2c(-c3ccn(CC(F)(F)F)c(=O)c3)cc(-c3cnn(C(c4ccc(C(F)(F)F)nc4)C4CCOCC4)c3)cn2n1 (single isomer, unassigned) [II-176]', '5.6 nM'),
  ('CC[C@@H](c1ccccc1)n1cc(-c2cc(-c3cnn(C4CC4)c3)c3nc(N)nn3c2)cn1', '150 nM'),
  ('CC(C)C(c1ccc(C(F)(F)F)nc1)n1cc(-c2cc(-c3cnn(C4CCCC4)c3)n3nc(N)nc3c2)cn1 (single isomer, unassigned) [II-144]', '57 nM'),
  ('Nc1nc2c(-c3cn(CC(F)(F)F)c(=O)cn3)cc(-c3cnn(C(c4ccc(C(F)(F)F)nc4)C4CCOCC4)c3)cn2n1 (single isomer, unassigned) [II-168]', '77 nM'),
  ('Nc1nc2cc(-c3cnn(Cc4ccccc4)c3)cc(-c3cnn(C4CCOC4)c3)n2n1 (centres unmarked)', '160 nM'),
  ('CCC(c1ccc(C(F)(F)F)nc1)n1cc(-c2cc(-c3ccc(C(F)(F)F)nc3)c3nc(N)nn3c2)cn1 (single isomer, unassigned) [II-38]', '120 nM'),
  ('CC(C)C(c1ccc(C(F)F)nc1)n1cc(-c2cc(-c3ccc(OC(F)F)nc3)n3nc(N)nc3c2)cn1 (single isomer, unassigned) [II-51]', '25 nM'),
  ('CCC(c1ccc(C(F)(F)F)nc1)n1cc(-c2cc(-c3ccc(=O)n(C(F)F)c3)n3nc(N)nc3c2)cn1 (single isomer, unassigned) [II-181]', '5.4 nM'),
  ('CC[C@@H](c1ccccc1)n1cc(-c2cc(-c3cnn(C(C)C(F)(F)F)c3)c3nc(N)nn3c2)cn1 (single isomer, unassigned) [II-95]', '40 nM'),
  ('CC[C@@H](c1ccccc1)n1cc(-c2cc(-c3cnn(CC(F)(F)F)c3)c3nc(N)nn3c2)cn1', '68 nM'),
  ('CS(=O)(=O)c1cccc(-c2cc(-c3cnn(C(c4ccc(C(F)(F)F)nc4)C4CCOCC4)c3)cn3nc(N)nc23)c1 (single isomer, unassigned) [II-15]', '2.7 nM'),
  ('CC(C)C(c1ccc(C(F)(F)F)nc1)n1cc(-c2cc(-c3cnn(CC(F)(F)F)c3)n3nc(N)nc3c2)cn1 (single isomer, unassigned) [II-141]', '140 nM'),
  ('Nc1nc2cc(-c3cnn(Cc4ccccc4)c3)cc(-c3cnn(CC4CC4(F)F)c3)n2n1 (centres unmarked)', '73 nM'),
  ('CCC(c1ccc(C(F)(F)F)cc1)n1cc(-c2cc(-c3cnn(C)c3)c3nc(N)nn3c2)cn1 (single isomer, unassigned) [II-100]', '500 nM'),
  ('CCC(c1ccc(C(F)(F)F)nc1)n1cc(-c2cc(-c3cc(CO)ccc3Cl)c3nc(N)nn3c2)cn1 (racemic) [II-1]', '2.3 nM');

Source listed as patent US20230086702A1.
